Where these numbers come from: paper PMC9814790

# TARGET_UNDER_TEST: wild-type KDM5A PHD3 finger expressed in the auxotrophic E. coli Castellani and Chalmers strain (Homo sapiens) (UniProt P29375)
# TEST: ITC; H3K4me3 peptide (380 uM) titrated to KDM5A PHD3 fingers (28 uM); for AUX WT-KDM5A 190 uM peptide and 21 uM protein; 20 mM TRIS-HCl pH 7.5, 50 mM NaCl, 1 mM DTT; 19 injections; one set of sites model; 7-9 repeats (AUX WT in replicate)
Where no end group is shown, it is not given here. Me3 = trimethyl (trimethylated lysine, Kme3)
PROPERTY_LABEL: Kd (nM)

>>> value_measured("ARTK(Me3)QTARKS [H3K4me3 histone peptide (ARTKme3QTARKS)]")
48
